Target: recombinant human CD200 Fc Chimera (human) (UniProt P41217)
Assay: SPR (Biacore 3000), CD200-Fc captured by anti-human Fc on CM5, Fab injected, 1:1 Langmuir
RECORDED ENDPOINT: kon (M⁻¹ s⁻¹)
Express the result in M⁻¹ s⁻¹ but write the number alone.

Qu. Retrieve kon measured for TPP-123 (Fab, V domains shown) VH: QVQLVQSGAEVKKPGASVKVSCKASGYSFTDYIILWVRQATGQGLEWMGHIDPYYGSSNYNLKFKGRVTMTRNTSISTAYMELSSLRSEDTAVYYCARSKRDYFDYWGQGTLVTVSS VL: DIQMTQSPSSLSASVGDRVTITCKASQDINSYLSWFQQKPGKAPKSLIYRANRLVDGVPSRFSGSGSGTDFTLTISSLQPEDFATYYCLQYDEFPYTFGQGTKLEIK and print it.
Ans. 1.12e+06

Qu. Kindly indicate its recorded kon. Item: TPP-135 (Fab, V domains shown) VH: QMQLVQSGPEVKKPGTSVKVSCKASGYSFTDYIILWVRQARGQRLEWIGHIDPYYGSSNYNLKFKGRVTITRDMSTSTAYMELSSLRSEDTAVYYCAASKRDYFDYWGQGTLVTVSS VL: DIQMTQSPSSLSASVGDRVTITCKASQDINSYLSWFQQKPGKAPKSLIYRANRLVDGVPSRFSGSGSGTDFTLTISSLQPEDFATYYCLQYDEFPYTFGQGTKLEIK
Ans. 930000

Qu. Give recorded kon. TPP-139 (Fab, V domains shown) VH: QVQLVQSGSELKKPGASVKVSCKASGYSFTDYIILWVRQAPGQGLEWMGHIDPYYGSSNYNLKFKGRFVFSLDTSVSTAYLQISSLKAEDTAVYYCARSKRDYFDYWGQGTLVTVSS VL: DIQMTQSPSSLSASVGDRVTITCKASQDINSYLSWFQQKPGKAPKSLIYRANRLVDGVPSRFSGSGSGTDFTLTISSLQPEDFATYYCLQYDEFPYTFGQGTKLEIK
Ans. 993000
